B1: MYOZ1 (parent)
chain: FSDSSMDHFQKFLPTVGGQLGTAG

# Variants of: B1
# Experiment: protein stability index of a GFP-peptide fusion (GPS, HEK-293T) (PSI 1-6); higher = more stable;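 further: lentivirally expressed fusions sorted by FACS into six bins by GFP to DsRed ratio, PSI derived from sequencing read proportions per bin multiplied by bin number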
# Condition set: c terminus: a fixed tail appended
As shown below, each of these variants has a reported protein stability index value.
Measurement label: protein stability index

Sequence content | Measured number
FSDSSMGHFQKFLPTVGGQLGTAG [D7G] | 1.44
FSDSSMDHFQKFLPTVGGQLGKAG [T22K] | 3.06
FSDSSMDHFKKFLPTVGGQLGTAG [Q10K] | 2.14
FSDSSMDHFQKFLPDVGGQLGTAG [T15D] | 2.61
FSDSSMDHFQPFLPTVGGQLGTAG [K11P] | 2.46
FSDSSSDHFQKFLPTVGGQLGTAG [M6S] | 2.26
KSDSSMDHFQKFLPTVGGQLGTAG [F1K] | 3.77
FSDSSMDHFQKFLPTVGGQLGTAK [G24K] | 2.16
FSDSSMDHFQKFLPTVGNQLGTAG [G18N] | 2.67
FSDSSMDHFQKFLPTVGGQLGRAG [T22R] | 2.16
FSDSSMDHFQKFLPTVKGQLGTAG [G17K] | 2.02
FSDSSMDHFQHFLPTVGGQLGTAG [K11H] | 2.38
FSDSSMDHFQKFLPTVGGQQGTAG [L20Q] | 2.66
FSDSSMDHFQKFLPTVGGKLGTAG [Q19K] | 2.33
FSDSSMDHFQKFLPTAGGQLGTAG [V16A] | 3.19
FSDSSMDHFQKFLPTYGGQLGTAG [V16Y] | 1.92
FSDSSMDHFQKFLPTVGDQLGTAG [G18D] | 3.05
FSDSSMDHFQKFLPTVGGQLGTQG [A23Q] | 2.62
FSDSSMDHFQKFLPTVGGQLGLAG [T22L] | 3.17
FSDSSMDHFQKFLPTVGGSLGTAG [Q19S] | 2.2
FSDSSMDHFQKFLPTVDGQLGTAG [G17D] | 2.33
FSDSSMLHFQKFLPTVGGQLGTAG [D7L] | 1.55
